B1: ZNF24 (parent)
chain: THTKEQILELVVLEQFVAILPKEL

Variants of: B1
Experiment: protein stability index of a GFP-peptide fusion (GPS, HEK-293T) (PSI 1-6); higher = more stable;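 note: lentivirally expressed fusions sorted by FACS into six bins by GFP to DsRed ratio, PSI derived from sequencing read proportions per bin multiplied by bin number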
Details: c terminus: a fixed tail appended
Attribute: protein stability index

Alteration: V11S
protein stability index: 2.03

Alteration: Q15W
protein stability index: 2.82

Alteration: K4A
protein stability index: 2.93

Alteration: L10N
protein stability index: 2.23

Alteration: L8N
protein stability index: 1.57

Alteration: I19T
protein stability index: 1.8

Alteration: H2Q
protein stability index: 3.14

Alteration: V11H
protein stability index: 2.18

Alteration: L20G
protein stability index: 1.94

Alteration: I7H
protein stability index: 2.04

Alteration: E5H
protein stability index: 2.42

Alteration: E14D
protein stability index: 2.24

Alteration: E14S
protein stability index: 2.53

Alteration: T3D
protein stability index: 2.43

Alteration: H2L
protein stability index: 4.38

Alteration: E5Y
protein stability index: 2.01

Alteration: H2A
protein stability index: 3.12

Alteration: Q15K
protein stability index: 1.75

Alteration: Q6E
protein stability index: 2.46

Alteration: V17A
protein stability index: 3.14

Alteration: E14Y
protein stability index: 3.47

Alteration: L20Q
protein stability index: 3.05
